Test: in vitro
Conditions: dog
measurement.kind: CC50 at 36 h (µg/mL)
Quick note: give the figure in µg/mL, leave out the unit.

Briefly, CC50 at 36 h measured for NC(=O)c1ncn([C@@H]2O[C@H](CO)[C@@H](O)[C@H]2O)n1 [Ribavirin, ribavirin, reference compound] : 744

For reference, reported CC50 at 36 h for O=Cc1c[nH]c2ccccc12 stands at 522

Data point: Oc1nccc2c1[nH]c1ccccc12 [Compound 9, 1-hydroxy-β-carboline] ; CC50 at 36 h = 403

Per the record, OCc1ccc(-c2nccc3c2[nH]c2ccccc23)o1 has CC50 at 36 h of 116

---

So I've got a bunch of compounds here, and I need their IC50 values.
System: influenza virus (A/Puerto Rico/8/34 (H1N1), PR/8)
Experiment: organism not typed
Format: cell-based
Settings: MDCK cells infected with A/Puerto Rico/8/34 (H1N1), 48 h post-infection, crystal violet staining; read-out: IC50 against H1N1 (CPE inhibition)

For reference, reported IC50 for CC(C)[C@H]1C(=O)OCc2ccc(C=O)n21 stands at > 50 µg/mL

// IC50 value for CC(C)C[C@H]1C(=O)OCc2ccc(C=O)n21 : > 50 µg/mL

For record O=Cc1c[nH]c2ccccc12 the listed IC50 is 45.9 µg/mL

Notebook: O=C(CO)c1c[nH]c2ccccc12 [Compound 12, 2-hydroxy-1-(1H-indol-3-yl)ethanone] , IC50 read as > 50 µg/mL

Lab note: measured IC50 of OC[C@H](O)[C@@H](O)Cc1cnc(-c2ccco2)cn1 was > 50 µg/mL

Input OCc1ccc(-c2nccc3c2[nH]c2ccccc23)o1 . Output IC50: 38.3 µg/mL

response.value for NC(=O)c1ncn([C@@H]2O[C@H](CO)[C@@H](O)[C@H]2O)n1 [Ribavirin, ribavirin, reference compound] (field: IC50) = 23.1 µg/mL

Reported IC50 ( O=C(O)c1cc2c([nH]c3ccccc32)c(-c2ccc(CO)o2)n1 ) = > 50 µg/mL

Record summary for OC[C@H](O)[C@@H](O)Cc1cncc(-c2ccco2)n1 : reported IC50 = > 50 µg/mL

# compound Oc1nccc2c1[nH]c1ccccc12 [Compound 9, 1-hydroxy-β-carboline] ; its IC50 = 25 µg/mL

IC50 reported for this compound COCc1ccc(C=O)[nH]1 : > 50 µg/mL

Kindly note the recorded IC50 for O=Cc1ccc2n1[C@@H](Cc1ccccc1)C(=O)OC2 , which is > 50 µg/mL
